# System: LN-229
# TEST METHOD NOTES: Cell viability assay, brain carcinoma cell line LN-229
# Type: cell-based
# SETTINGS: Homo sapiens; LN-229 brain carcinoma cell line, 72 h, absolute IC50
ASSAY ENDPOINT: IC50 (µM)
Report the figure in µM without appending any unit label.

Example compounds with recorded IC50:
CN(CCCCc1ccc(-c2cc(=O)c3ccc4c(c3o2)OCO4)cc1)CCCN1CCCCC1 : 2.8
CCN(CCCCc1ccc(-c2cc(=O)c3ccc4c(c3o2)OCO4)cc1)Cc1ccccc1OC : 2.9
O=c1cc(-c2ccc(CCCCN3CCCCC3)cc2)oc2c3c(ccc12)OCO3 : 7

Kindly note the recorded IC50 for NCCCNCCCCNCCCCc1ccc(-c2cc(=O)c3ccc4c(c3o2)OCO4)cc1 , which is 11

Origin of measurements: patent US20240132461A1
